Reference source for all entries: paper PMC6694196

- Target Of Assay: galectin-2 (Homo sapiens, UniProt P05162)
- Construct: full length human galectin-2 (residues 1–132, UniProt code: P05162); 6xHis-SUMO (N, cleaved yes); made in house; host or cells: E. coli BL21(DE3)
- Sequence (P05162 whole entry, the tested form may be a part): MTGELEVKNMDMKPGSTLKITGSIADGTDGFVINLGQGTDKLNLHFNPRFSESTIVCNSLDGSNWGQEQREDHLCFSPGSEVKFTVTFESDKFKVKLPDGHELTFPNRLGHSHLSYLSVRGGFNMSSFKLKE
- Assay Procedure: ITC of galectin-2-ligand interaction
- Type: binding
Parameter Measured: Kd

input: Provide the documented Kd with galectin-2 (Homo sapiens, UniProt P05162) as the system for "O=C[C@H](O)[C@@H](O)[C@@H](O)[C@H](O)CO"
output: > 1 mM

---

- Target Of Assay: galectin-4 (Homo sapiens)
- Construct: 6xHis-SUMO (N, cleaved yes); made in house; host or cells: E. coli BL21(DE3)
- Sequence (P56470 whole entry): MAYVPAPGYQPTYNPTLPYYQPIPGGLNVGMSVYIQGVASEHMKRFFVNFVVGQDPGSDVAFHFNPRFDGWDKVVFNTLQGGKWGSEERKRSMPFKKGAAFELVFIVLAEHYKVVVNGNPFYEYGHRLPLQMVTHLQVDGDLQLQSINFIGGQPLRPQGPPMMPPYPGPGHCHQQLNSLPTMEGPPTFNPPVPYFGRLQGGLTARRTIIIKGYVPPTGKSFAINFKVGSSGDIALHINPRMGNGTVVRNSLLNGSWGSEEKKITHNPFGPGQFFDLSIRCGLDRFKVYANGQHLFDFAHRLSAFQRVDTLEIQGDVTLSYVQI
- Assay Procedure: TFS of galectin-4-ligand interaction
- Assay type: binding
- Particulars: full-length galectin-4 5 µM, PBS, 25 °C, read-out: KD
Parameter Measured: Kd (mM)
One number for each entry, in mM.

input: Please report the recorded Kd for CC(=O)N[C@H]1C(O)O[C@H](CO)[C@@H](O[C@@H]2O[C@H](CO)[C@H](O)[C@H](O)[C@H]2O)[C@@H]1O (stereo partly shown) .
output: 9.3
